System: β-amylase
Experiment: Substrate specificity of β-amylase
Type: biochemical, Bacillus flexus
Details: activity with respect to soluble starch = 100%; oligosaccharides 0.5%, 0.1 u/ml enzyme, 37° C., 30 minutes, maltose by HPLC
Description: The activity of β-amylase was measured as follows. To 0.5 ml of 0.1M phosphate-HCl buffer solution (pH 5.0) containing 1% soluble starch and 10 mM calcium acetate, 0.5 ml of enzyme solution was added. The mixture was incubated at 37° C. for 30 minutes. […] After the reaction was stopped, the reaction mixture was boiled for five minutes, the absorbance was measured at the wavelength of 530 nm. The enzyme amount when the absorbance measured at the wavelength of 530 nm is 1 is defined as one unit. […]
Listed below: Relative activity (%) values for each entry.
Give just the number in %; leave the unit off.

Past entries and their recorded results:
| COMPOUND | TARGET OR SYSTEM | UNIT LABEL | Relative activity (%) |
| --- | --- | --- | --- |
| OC[C@H]1O[C@@H]2O[C@H]3[C@H](O)[C@@H](O)[C@@H](O[C@H]4[C@H](O)[C@@H](O)[C@@H](O[C@H]5[C@H](O)[C@@H](O)[C@@H](O[C@H]6[C@H](O)[C@@H](O)[C@@H](O[C@H]7[C@H](O)[C@@H](O)[C@@H](O[C@H]8[C@H](O)[C@@H](O)[C@@H](O[C@H]1[C@H](O)[C@H]2O)O[C@@H]8CO)O[C@@H]7CO)O[C@@H]6CO)O[C@@H]5CO)O[C@@H]4CO)O[C@@H]3CO | β-amylase | % | 1.4 |
| OC[C@H]1O[C@H](O[C@H]2[C@H](O)[C@@H](O)[C@@H](O[C@H]3[C@H](O)[C@@H](O)[C@@H](O[C@H]4[C@H](O)[C@@H](O)C(O)O[C@@H]4CO)O[C@@H]3CO)O[C@@H]2CO)[C@H](O)[C@@H](O)[C@@H]1O (stereo partly shown) | β-amylase | % | 75 |
| OC[C@H]1O[C@@H]2O[C@H]3[C@H](O)[C@@H](O)[C@@H](O[C@H]4[C@H](O)[C@@H](O)[C@@H](O[C@H]5[C@H](O)[C@@H](O)[C@@H](O[C@H]6[C@H](O)[C@@H](O)[C@@H](O[C@H]7[C@H](O)[C@@H](O)[C@@H](O[C@H]8[C@H](O)[C@@H](O)[C@@H](O[C@H]9[C@H](O)[C@@H](O)[C@@H](O[C@H]1[C@H](O)[C@H]2O)O[C@@H]9CO)O[C@@H]8CO)O[C@@H]7CO)O[C@@H]6CO)O[C@@H]5CO)O[C@@H]4CO)O[C@@H]3CO | β-amylase | % | 0.6 |

Continue with the next compound.
Observed Relative activity (%), β-amylase, OC[C@H]1O[C@@H]2O[C@H]3[C@H](O)[C@@H](O)[C@@H](O[C@H]4[C@H](O)[C@@H](O)[C@@H](O[C@H]5[C@H](O)[C@@H](O)[C@@H](O[C@H]6[C@H](O)[C@@H](O)[C@@H](O[C@H]7[C@H](O)[C@@H](O)[C@@H](O[C@H]1[C@H](O)[C@H]2O)O[C@@H]7CO)O[C@@H]6CO)O[C@@H]5CO)O[C@@H]4CO)O[C@@H]3CO : 0

Source listed as patent US9157074B2.
